Source of measurements: PubChem BioAssay AID1159580

# EXPERIMENTAL DETAILS: chemical genetic growth profiling, strain panel (AID 1159580);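 note: tested at 20 µM; growth read once vehicle control cultures reached saturation at 30 °C; lower values mean less growth of the strain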
# MEASUREMENT CONDITIONS: S. cerevisiae deletion strains, growth OD, locus YPR141C, strain kar3
The whole screen tested about 5,500 compounds, of which about 2,000 (36%) were called active. Another 18% or so got no clear call; they are omitted. Cut-off read from the data, not from the text of the source: active = normalized growth mostly below about 0.91 (no sharp cut-off); inconclusive = no clear call, values can overlap the other calls; inactive = mostly above about 0.92. Some of the results follow.
Choose the fitting class; nothing outside Y for active, N for inactive is accepted.

>>> category_label("CCCCCCCCCCCC1=C(O)C(=O)C=C(O)C1=O")
"Y"
>>> category_label("CN1C[C@H](C(=O)N[C@]2(C)O[C@@]3(O)[C@@H]4CCCN4C(=O)[C@H](Cc4ccccc4)N3C2=O)C[C@@H]2c3cccc4[nH]cc(c34)C[C@H]21")
"N"
>>> category_label("NC(CSCSCC(N)C(=O)O)C(=O)O (configuration not stated)")
"N"
>>> category_label("C[C@@H]([C@H](O)c1ccccc1)N(C)C")
"N"
>>> category_label("CCOC(=O)c1c(C)cc(OC)cc1O")
"N"

Outcome logged for CCC(=O)c1c(O)cc(O)cc1O in this assay:
N

Outcome logged for Cc1cc(OC(=O)c2c(C)cc(OC(=O)c3c(C)cc(O)cc3O)cc2O)cc(O)c1C(=O)O in this assay:
N
